For each entry below, report its abundance fitness value.
B1: Tyrosine-protein kinase Lck, residues 63 to 120; numbered along this chain, P06239 (parent)
chain: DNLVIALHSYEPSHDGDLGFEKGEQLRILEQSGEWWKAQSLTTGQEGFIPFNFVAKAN

Variants of: B1
Experiment: abundance fitness (aPCA) (normalised: wild type 0, dead -1); higher = more abundant; growth selection in yeast, the domain comes from the species named
Settings: Homo sapiens
Give bare numbers.

Known abundance fitness results, listed for orientation:
- VARIANT DESCRIPTION: "L41P"
  abundance fitness: -0.339
- VARIANT DESCRIPTION: "D15F"
  abundance fitness: -0.148
- VARIANT DESCRIPTION: "H14L"
  abundance fitness: -0.267
- VARIANT DESCRIPTION: "G19I"
  abundance fitness: -0.538
- VARIANT DESCRIPTION: "Q31H"
  abundance fitness: -0.301
- VARIANT DESCRIPTION: "E21G"
  abundance fitness: -0.349

Give me abundance fitness for each of these variants, listed below.
1. H8R
2. S40M
3. N52I
4. A55H
5. L41W
6. Q39F
7. G23Y
8. P12Y

# output
0.034
-0.918
-0.854
-0.27
-0.933
-0.503
-0.655
-0.525

Give me abundance fitness for each of these variants, listed below.
1. L3W
2. D1Y

# output
[-0.232, -0.224]

Give me abundance fitness for each of these variants, listed below.
1. L41C
2. P50L

# output
1: -0.068; 2: -0.995
